# Test system: Klebsiella pneumoniae ATCC 49472
# Assay Details: Rescue concentration, modified checkerboard MIC adjuvant assay
# Assay type: cell-based
# Condition Parameters: K. pneumoniae ATCC 49472; Pol B at susceptible breakpoint 8 μg mL^−1
The entries below come with measured Rescue concentration, Pol B (8) values attached.
Numeric only. Scale: µg/mL

# Molecule, Result Units, Obs Value
data = [
    ("Oc1ccc(C(c2c[nH]c3cnccc23)c2c[nH]c3cnccc23)cc1 [SP-6azaBIM 136]", "µg/mL", 16),
]

Okay, now this molecule:
Qu. Requested field: Rescue concentration, Pol B (8). Item: Brc1ccc(C(c2c[nH]c3cnccc23)c2c[nH]c3cnccc23)cc1 [SP-6azaBIM 125]
Ans. 4
